- testMethodNotes: qHTS to identify inhibitors of the type 1 interferon - major histocompatibility complex class I in skeletal muscle: primary screen against the NCATS LOPAC collection (AID 1347405);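 note: human myoblasts with HiBiT tag on endogenous HLA-B stimulated by IFN-beta; lytic HiBiT luminescence reporting HLA-B protein level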
- appliedConditions: iHSKM muscle cells, IFN-b-induced MHC-I HiBiT luminescence, 24 h; series mostly up to 45.9 µM
Results filed as inconclusive are left out. Calls of active or inactive are those of the source. Calls come from the whole dose curve; as a rule, active = well fitted inhibition curve with a large enough effect; inconclusive = small, poorly fitted or top-dose-only effect; inactive = flat fitted curve, though single readings scatter.
Choose the fitting class; nothing outside TRUE (active), FALSE (inactive) is accepted.

I'd appreciate the recorded outcome for C[C@H](NC(CCc1ccccc1)C(=O)O)C(=O)N1CCC[C@H]1C(=O)O (some centres undefined) from this test.
FALSE

I'd appreciate the recorded outcome for CNCCCC1c2ccccc2C=Cc2ccccc21 from this test.
FALSE

I'd appreciate the recorded outcome for CC(C(O)c1ccc(O)cc1)N1CCC(Cc2ccccc2)CC1 (centres undefined) from this test.
FALSE

I'd appreciate the recorded outcome for CCCCN(CCCC)CC(O)c1cc(Cl)cc2c1-c1ccc(Cl)cc1/C2=C/c1ccc(Cl)cc1 (centres undefined) from this test.
FALSE

I'd appreciate the recorded outcome for CC(C)c1c(C(=O)Nc2ccccc2)c(-c2ccccc2)c(-c2ccc(F)cc2)n1CC[C@@H](O)C[C@@H](O)CC(=O)O from this test.
FALSE

I'd appreciate the recorded outcome for CC(=O)c1ccc2c(c1)N(CCCN(C)C)c1ccccc1S2 from this test.
FALSE

I'd appreciate the recorded outcome for CC(CN(C)C)CN1c2ccccc2CCc2ccccc21 (centres undefined) from this test.
FALSE

I'd appreciate the recorded outcome for C[C@H]1O[C@@H](n2cc(F)c(=O)[nH]c2=O)[C@H](O)[C@@H]1O from this test.
FALSE

Now look at this entry.
I'd appreciate the recorded outcome for CC1=C(CC(=O)O)c2cc(F)ccc2/C1=C\c1ccc(S(C)(=O)=O)cc1 from this test.
FALSE

----------
- testMethodNotes: qHTS assay to identify small molecule inhibitors of chordoma cells - UCH-2 (AID 1259356)
- appliedConditions: UCH-2 chordoma viability, CellTiter-Glo ATP luminescence, 48 h; series mostly up to 46.1 µM
Records with an inconclusive call do not appear. Active and inactive are the calls of the source. Calls come from the whole dose curve; as a rule, active = well fitted cell-killing curve with a large enough effect; inconclusive = small, poorly fitted or top-dose-only effect; inactive = flat fitted curve, though single readings scatter.
assayMetric: outcome

If you can, please state the reported outcome value of O=C(CCCN1CCN(c2ccccn2)CC1)c1ccc(F)cc1 .
inactive

If you can, please state the reported outcome value of Cn1cc[nH]c1=S .
inactive

If you can, please state the reported outcome value of C[C@H]1O[C@@H](n2cc(F)c(=O)[nH]c2=O)[C@H](O)[C@@H]1O .
inactive

If you can, please state the reported outcome value of CCCCC(CC)COC(=O)c1ccccc1O (configuration not stated) .
inactive

If you can, please state the reported outcome value of CC(C)(O)c1ccccc1CC[C@@H](SCC1(CC(=O)O)CC1)c1cccc(/C=C/c2ccc3ccc(Cl)cc3n2)c1 .
inactive

Quick request: outcome for each listed item, please.
1. C[C@@H]1CN(c2c(F)c(F)c3c(=O)c(C(=O)O)cn(C4CC4)c3c2F)C[C@H](C)N1
2. NC(=O)NC(=O)Cc1ccccc1
3. O=C(O)[C@H](O)c1ccccc1
4. O=C(O)CC(O)C(=O)O (configuration not stated)
5. Cn1c(=O)c2c(ncn2CC2OCCO2)n(C)c1=O
6. COc1cc(C(=O)N2CCOCC2)cc(OC)c1OC
7. Cc1ncc([N+](=O)[O-])n1CC(O)CCl (configuration not stated)

["inactive", "inactive", "inactive", "inactive", "inactive", "inactive", "inactive"]

Hey, just so you know, these numbers are from PubChem BioAssay (NCATS).
